System: UACC-62
test-method-notes: NCI tumour cell line growth inhibition, 48 h
The source made the active and inactive calls. No stated cut-off is given here; in the data, active = GI50 up to about 1.1 µM and inactive = higher.
The reader will find reported GI50 values listed item by item below.

Solved entries (count: 8):
* C[C@@H]1C(=O)CC2C(C)(C)CCC[C@]2(C)[C@@]12CC[C@]1(C=COC1)O2 (some centres not stated) | 35.4 µM (inactive)
* CN(C)c1ccc(/C=N/C23CC4CC(CC(C4)C2)C3)cc1 | > 100 µM (inactive)
* O=C(/C=C/c1c[nH]c2ccccc12)c1ccccc1O | 8.17 µM (inactive)
* Nc1ncn(C2C=C(CO)C(O)C2O)c(=O)n1 (configuration not stated) | > 100 µM (inactive)
* CCOc1ccc2[nH]c3c(C)c4cc[n+](C)cc4c(C)c3c2c1 | 1.84 µM (inactive)
* CSC1=NC(C(N)=O)C(N)N1C (configuration not stated) | > 100 µM (inactive)
* COc1ccc(/C=C2\CCC(C)/C(=C\c3ccc(OC)c(OC)c3)C2=O)cc1OC (configuration not stated) | 6.21 µM (inactive)
* c1cc2nnc1SCCCSc1ccc(nn1)SCCCS2 | > 25.8 µM (inactive)

Reported GI50, compound O=c1ccn([C@H]2CSC[C@@H](CO)C2)c(=O)[nH]1 : ____
> 100 µM (inactive)

Okay, and Cc1ccc(NC(=O)CC2C(=O)Nc3ccccc3S2(=O)=O)cc1C (configuration not stated) ?
84.7 µM (inactive)

Entry source: ChEMBL document CHEMBL1201862
